Where do the numbers come from? From patent US9233978B2.

Attribute: Human Microsomal Clearance
Assay: Human microsomal metabolic stability
Format: in vitro ADME
Settings: human microsomes 0.5 mg/mL, 1 μM test compound, NADPH, 37° C., pH 7.4, 0-30 minutes
Procedure: Human Microsomes (BD Gentest) were preincubated with test compound for 10 minutes at 37° C. in 100 mM phosphate buffer, pH 7.4. The reactions were initiated by adding NADPH or NADPH regenerating system to give a final incubation volume of 400 μL. […] Following precipitation and centrifugation, the amount of compound remaining in the samples were determined by LC-MS/MS. Controls of no NADPH or no NADPH regenerating system at zero and 30 minutes were also prepared and analyzed.
property_name: Human Microsomal Clearance (L/h/kg)

molecule="CCOC(=O)C1=C(CN2CCN3C(=O)N(Cc4ccc(C(=O)O)cc4)CC3C2)NC(c2nccs2)=N[C@H]1c1cccc(F)c1Cl (stereo partly drawn)" obs_value=0.426
molecule=COC(=O)C1=C(CN2CCN3C(=O)N(CC4(C(=O)O)CC4)C[C@@H]3C2)NC(c2nccs2)=N[C@H]1c1ccc(F)c(F)c1C obs_value=0.12
molecule="COC(=O)C1=C(CN2CCN3C(=O)N(C(C)(C)C)C[C@@H]3[C@H]2C(=O)O)NC(c2nccs2)=N[C@H]1c1ccc(F)c(F)c1C (single isomer, unassigned) [Example 88B]" obs_value=0.27

----------
System: CYP3A4
Test: Cytochrome P450 induction screening assay, mRNA induction in human cryopreserved hepatocytes
Format: in vitro ADME
Conditions: CYP3A4 mRNA relative induction, 24 hours, test compound up to 10 μM
Catalogue of % of Positive control (10 μM Rifampicin) readings, one per entry.
property_name: % of Positive control (10 μM Rifampicin) (%)

compound="CCOC(=O)C1=C(CN2CCN3C(=O)N(C(C)(C)CC(=O)O)C[C@@H]3C2)NC(c2nccs2)=N[C@H]1c1cccc(F)c1Cl [Example 34]" property_name="% of Positive control (10 μM Rifampicin)" obs_value=0.2
compound="COC(=O)C1=C(CN2CCN3C(=O)N(c4ccc(C(=O)O)cc4)C[C@@H]3C2)NC(c2nccs2)=N[C@H]1c1ccc(F)cc1Cl [Example 25]" property_name="% of Positive control (10 μM Rifampicin)" obs_value=0
compound="CCOC(=O)C1=C(CN2CCN3C(=O)N(CC(C)(C)C(=O)O)C[C@@H]3C2)NC(c2nccs2)=N[C@H]1c1cccc(F)c1C [Example 76]" property_name="% of Positive control (10 μM Rifampicin)" obs_value=1.3

----------
Tested on: CYP3A4
Assay: Cytochrome P450 induction screening assay, mRNA induction in human cryopreserved hepatocytes
Type: in vitro ADME
Conditions: CYP3A4 mRNA relative induction, 24 hours, test compound up to 10 μM
Property: % of Positive control (10 μM Rifampicin); scope: individual molecules
property_name: % of Positive control (10 μM Rifampicin) (%)

molecule="COC(=O)C1=C(CN2CCN3C(=O)N(CC(C)(C)CC(=O)O)C[C@@H]3C2)NC(c2nccs2)=N[C@H]1c1ccc(F)cc1Cl [Example 55]" quantity_unit=% obs_value=0.1
molecule="CCOC(=O)C1=C(CN2CCN3C(=O)N(CC(C)(C)C(=O)O)C[C@@H]3C2)NC(c2nccs2)=N[C@H]1c1ccc(F)c(F)c1C [Example 22]" quantity_unit=% obs_value=0
molecule="CCOC(=O)C1=C(CN2CCN3C(=O)N(c4cccc(C(=O)O)c4)C[C@@H]3C2)NC(c2nccs2)=N[C@H]1c1cccc(F)c1Cl [Example 27]" quantity_unit=% obs_value=0.2
molecule="COC(=O)C1=C(CN2CCN3C(=O)N(CCC(C)(C)C(=O)O)C[C@@H]3C2)NC(c2nccs2)=N[C@H]1c1ccc(F)cc1Cl [Example 54]" quantity_unit=% obs_value=0
molecule="CCOC(=O)C1=C(CN2CCN3C(=O)N(C(C)(C)C)C[C@@H]3[C@H]2C(=O)O)NC(c2nccs2)=N[C@H]1c1cccc(F)c1Cl (single isomer, unassigned) [Example 87B]" quantity_unit=% obs_value=4.0
molecule="COC(=O)C1=C(CN2CCN3C(=O)N(C4CC4)CC3(CC(=O)O)C2)NC(c2nccs2)=N[C@H]1c1ccc(F)cc1Cl (stereo partly drawn) [Example 30]" quantity_unit=% obs_value=7.3

----------
Assay: Lysa solubility
Assay type: physicochemical
Details: phosphate buffer, pH 6.5, aqueous buffer, thermodynamic from solid, 0.05 M phosphate buffer (pH 6.5)
property_name: solubility thermodynamic

compound="COC(=O)C1=C(CN2CCN3C(=O)N(C4(CC(=O)O)CC4)CC3C2)NC(c2nccs2)=N[C@H]1c1ccc(F)cc1Cl (stereo in doubt) [Example 47]" obs_value="> 767 µg/mL"
compound="CCOC(=O)C1=C(CN2CCN3C(=O)CC[C@@H]3[C@H]2C(=O)O)NC(c2nccs2)=N[C@H]1c1cccc(F)c1Cl (racemic) [Example 99]" obs_value="> 710 µg/mL"
compound="COC(=O)C1=C(CN2CCN3C(=O)N(C(C)(C)C)C[C@@H]3[C@H]2C(=O)O)NC(c2nccs2)=N[C@H]1c1ccc(F)cc1Cl (single isomer, unassigned) [Example 86B]" obs_value="> 740 µg/mL"
compound="COC(=O)C1=C(CN2CCN3C(=O)N(C4CC4)C[C@@H]3[C@H]2C(=O)O)NC(c2nccs2)=N[C@H]1c1ccc(F)cc1Cl (racemic) [Example 45]" obs_value="> 690 µg/mL"
compound="CCOC(=O)C1=C(CN2CCN3C(=O)N(c4ccccc4C(=O)O)C[C@@H]3C2)NC(c2nccs2)=N[C@H]1c1cccc(F)c1Cl [Example 28]" obs_value="337 µg/mL"
compound="COC(=O)C1=C(CN2CCN3C(=O)N(CC4(C(=O)O)CC4)C[C@@H]3C2)NC(c2nccs2)=N[C@H]1c1ccc(F)c(F)c1C [Example 38]" obs_value="627 µg/mL"
compound="CCOC(=O)C1=C(CN2CCN3C(=O)N(CC(C)(C)C(=O)O)C[C@@H]3C2)NC(c2nccs2)=N[C@H]1c1cccc(F)c1C [Example 76]" obs_value="565 µg/mL"
compound="CCOC(=O)C1=C(CN2CCN3C(=O)N(C)C[C@H]3[C@@H]2C(=O)O)NC(c2nccs2)=N[C@H]1c1cccc(F)c1Cl (single isomer, unassigned) [Example 91B]" obs_value="> 705 µg/mL"
compound="COC(=O)C1=C(CN2CCN3C(=O)N(C(C)(C)CC(=O)O)C[C@@H]3C2)NC(c2nccs2)=N[C@H]1c1ccc(F)cc1Cl [Example 33]" obs_value="> 748 µg/mL"
compound="COC(=O)C1=C(CN2CCN3C(=O)N(CCCCC(=O)O)C[C@@H]3C2)NC(c2nccs2)=N[C@H]1c1ccc(F)cc1Cl [Example 80]" obs_value="> 616 µg/mL"
compound="CCOC(=O)C1=C(CN2CCN3C(=O)N(CC4(C(=O)O)CC4)C[C@@H]3C2)NC(c2nccs2)=N[C@H]1c1cccc(F)c1Cl [Example 36]" obs_value="485 µg/mL"
compound="COC(=O)C1=C(CN2CCN3C(=O)N(C(C)C)CC3(CC(=O)O)C2)NC(c2nccs2)=N[C@H]1c1ccc(F)cc1Cl (stereo partly drawn) [Example 31]" obs_value="> 775 µg/mL"

----------
Selectivity index (CC50/EC50) reference
Tested on: HepDE19 cells
Assay: Cytotoxicity in HepDE19 cells (CCK-8) and selectivity index
Format: cell-based
Details: CC50 (HepDE19) value / EC50 (HepG2.2.15) value
property_name: Selectivity index (CC50/EC50)

compound=CCOC(=O)C1=C(CN2CCN3C(=O)N(CC4(C(=O)O)CC4)C[C@@H]3C2)NC(c2nccs2)=N[C@H]1c1cccc(F)c1Cl target_entity="HepDE19 cells" obs_value=>18181
compound=COC(=O)C1=C(CN2CCN3C(=O)N(CC4(C(=O)O)CC4)C[C@@H]3C2)NC(c2nccs2)=N[C@H]1c1ccc(F)cc1Cl target_entity="HepDE19 cells" obs_value=>9259
compound=CCCOC(=O)C1=C(CN2CCN3C(=O)N(CC(C)(C)C(=O)O)C[C@@H]3C2)NC(c2nccs2)=N[C@H]1c1cccc(F)c1Cl target_entity="HepDE19 cells" obs_value=7167
compound=COC(=O)C1=C(CN2CCN3C(=O)N(CCC(C)(C)C(=O)O)C[C@@H]3C2)NC(c2nccs2)=N[C@H]1c1ccc(F)cc1Cl target_entity="HepDE19 cells" obs_value=>12500
compound=COC(=O)C1=C(CN2CCN3C(=O)OC[C@@H]3C2)NC(c2nccs2)=N[C@H]1c1ccc(F)cc1Cl target_entity="HepDE19 cells" obs_value=23872
compound=COC(=O)C1=C(CN2CCN3C(=O)N(CC4(C(=O)O)CCC4)C[C@@H]3C2)NC(c2nccs2)=N[C@H]1c1ccc(F)cc1Cl target_entity="HepDE19 cells" obs_value=>9091
compound="CCOC(=O)C1=C(CN2CCN3C(=O)N(C)C[C@H]3[C@@H]2C(=O)O)NC(c2nccs2)=N[C@H]1c1cccc(F)c1Cl (single isomer, unassigned) [Example 91B]" target_entity="HepDE19 cells" obs_value=>50000
compound=CCOC(=O)C1=C(CN2CCN3C(=O)N(c4ccc(C(=O)O)cc4)C[C@@H]3C2)NC(c2nccs2)=N[C@H]1c1cccc(F)c1Cl target_entity="HepDE19 cells" obs_value=18620
compound=CCOC(=O)C1=C(CN2CCN3C(=O)N(CC(C)(C)C(=O)O)C[C@@H]3C2)NC(c2nccs2)=N[C@H]1c1cccc(F)c1Cl target_entity="HepDE19 cells" obs_value=>30303
compound="CCOC(=O)C1=C(CN2CCN3C(=O)N(C4CCC(C(=O)O)C4)C[C@@H]3C2)NC(c2nccs2)=N[C@H]1c1cccc(F)c1Cl (mixture of isomers) [Example 64]" target_entity="HepDE19 cells" obs_value=8375
compound="COC(=O)C1=C(CN2CCN3C(=O)N(C4CCC(C(=O)O)CC4)C[C@@H]3C2)NC(c2nccs2)=N[C@H]1c1ccc(F)cc1Cl (stereo partly drawn)" target_entity="HepDE19 cells" obs_value=7778
compound="CCOC(=O)C1=C(CN2CCN3C(=O)N(C(C)C)C[C@@H]3[C@H]2C(=O)O)NC(c2nccs2)=N[C@H]1c1cccc(F)c1Cl (single isomer, unassigned) [Example 84B]" target_entity="HepDE19 cells" obs_value=>100000
compound=COC(=O)C1=C(CN2CCN3C(=O)N(CC(C)(C)C(=O)O)C[C@@H]3C2)NC(c2nccs2)=N[C@H]1c1cccc(F)c1C target_entity="HepDE19 cells" obs_value=>6369
compound="COC(=O)C1=C(CN2CCN3C(=O)N(C4CC5(CC(C(=O)O)C5)C4)C[C@@H]3C2)NC(c2nccs2)=N[C@H]1c1ccc(F)cc1Cl (stereo partly drawn)" target_entity="HepDE19 cells" obs_value=6500
compound="COC(=O)C1=C(CN2CCN3C(=O)N(C(C)(C)C)C[C@@H]3[C@H]2C(=O)O)NC(c2nccs2)=N[C@H]1c1ccc(F)cc1Cl (single isomer, unassigned) [Example 86B]" target_entity="HepDE19 cells" obs_value=>25000
compound=COC(=O)C1=C(CN2CCN3C(=O)N(CC(C)(C)CC(=O)O)C[C@@H]3C2)NC(c2nccs2)=N[C@H]1c1ccc(F)cc1Cl target_entity="HepDE19 cells" obs_value=>20000
compound="CCOC(=O)C1=C(CN2CCN3C(=O)NCC3(C(=O)OC)C2)NC(c2nccs2)=N[C@H]1c1cccc(F)c1Cl (stereo partly drawn)" target_entity="HepDE19 cells" obs_value=37857
compound="COC(=O)C1=C(CN2CCN3C(=O)N(C4CC4)C[C@@H]3[C@H]2C(=O)O)NC(c2nccs2)=N[C@H]1c1ccc(F)c(F)c1C (single isomer, unassigned) [Example 83B]" target_entity="HepDE19 cells" obs_value=>11111
